Ref: patent US20250011448A1

- Target under test: T1, cynomolgus monkey TNFR2 extracellular domain with C-terminal 10×His tag (cynomolgus monkey, UniProt P20333 23-257 (human entry))
- T1 construct: also called cynoTNFR2-His; His-tag-cynoTNFR2
- T1 chain: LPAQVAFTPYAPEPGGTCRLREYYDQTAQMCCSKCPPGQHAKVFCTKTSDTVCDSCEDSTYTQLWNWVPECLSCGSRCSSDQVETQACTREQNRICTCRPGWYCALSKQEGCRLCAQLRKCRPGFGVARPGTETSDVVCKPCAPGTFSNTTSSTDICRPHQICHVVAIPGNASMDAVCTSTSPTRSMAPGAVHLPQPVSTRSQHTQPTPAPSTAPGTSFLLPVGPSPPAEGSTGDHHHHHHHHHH
- Test name: ELISA, plate coated with His-tagged TNFR2 ECD, serial dilution of chimeric IgG
- Method: TNFR2 binding of purified recombinant chimeric antibodies: The huTNFR2, cynoTNFR2 antigen binding ELISA was performed on the purified recombinant chimeric antibodies. Briefly, 384-well, clear, flat bottom, high binding plates (VWR, cat #29444-096) were coated overnight at 4° C. with 1 μg/mL of huTNFR2 or cynomolgus monkey TNFR2-His in PBS. […] Plates were analyzed with a Bio-TEK at 405 nm. […]
Exercise: state measured pEC50 for each of the binders provided.
Answers are plain numbers, as −log10 of the molar value.

Binder	Test result
51B5 chimeric anti-TNFR2 antibody (antibody, V domains shown, Chimeric: mouse variable domains with human constant regions, made as recombinant IgG1) VH: QVQLQQSGAELARPGTSVKLSCKASGYTFTDDYIDWVKQRTGQGLEWIGEIYPGSGNTYYNEKFKGKATLTADKSSSTAYMQLSSLTSEDSAVYFCARSQVYGKIAMDHWGQGTSVTVSS VL: DIVLTQSPASLAVSLGQRATISCRASESVDNSGNSFMHWYQQIPGQPPKLLIYRASNLESGIPARFSGSGARTDFTLTIDPVGAVDVATYYCQQSKEDPYTFGGGTKLEIE	10.31

Need pEC50 for each of these binders.
1. 29G3 chimeric anti-TNFR2 antibody (antibody, V domains shown, Chimeric: mouse variable domains with human constant regions, made as recombinant IgG1) VH: EVMLVESGGASVKPGGSLKLSCAASGFTFSNFAMSWVRQTPEKRLEWVATIRSGDNYSYYSDNVKGRFTISRDNARNTLYLQMSSLRSKDTSIYYCARNWDKVFDYWGQGTTLTVSS VL: DIVLTQSPASLAVSLGQRATISCRASESVDSYGYSFMHWYQQKPGQPPKLLIYRASNLKSGIPARFSGSGSRTDFTLTINPVEADDVATYYCQQSNEDHTFGGGTKLEIK
2. 85G8.4 chimeric anti-TNFR2 antibody (antibody, V domains shown, Chimeric: mouse variable domains with human constant regions, made as recombinant IgG1) VH: EVQLQQSGPELVKPGASVKISCKTSGYTFTDFNMDWVKQSHGKSLEWIGYINPNNGDAAYNQKFKSKATLTVDKSSNTAYMELHSLTSDDSAVYYCARWGWAFAYWGQGTLVTVSA VL: DIVMTQSHKIMSTSVGDRVSITCKASQDVKTAVAWYQQKPGQSPKLLIYATSYRYTGVPDRFTGSGSGTDFTFTISTVQAEDLAVYYCQQHYSIPYTFGGGTKLEIK
3. 15H10 chimeric anti-TNFR2 antibody (antibody, V domains shown, Chimeric: mouse variable domains with human constant regions, made as recombinant IgG1) VH: DVQLQESGPGLVTPSQSLSLTCSVTGYSITSGYYWNWIRQFPGNKLEWMGYITYDGNNNYNPSLKSRFSITRDTSKNQFFLKLNSVTSEDTATYYCARGDYGDSAMDYWGQGTSVTVSS VL: EIVLTQSPAITAASLGQKVTITCSASSGVNYMHWYQQKSGTSPKPWIYEISKLASGVPARFSGSGSGTSYSLTISSMEAEDAAIYYCQQWNYPLITFGAGTKVELK
4. 11C1 chimeric anti-TNFR2 antibody (antibody, V domains shown, Chimeric: mouse variable domains with human constant regions, made as recombinant IgG1) VH: DVQLRESGPGLVTPSQSLSLTCSVTGYSITSGYYWNWIRQIPGNKLEWMGYITYDGNNNYDPSLKNRISITRDTSKNQFFLTLNSVTSEDTATYYCARGDYGDSAMDYWGQGTSVTVSS VL: EIVLTQSPAITAASLGQKVTITCSASSSVSYMHWYQQKSGTSPKPWIYEISKLASGVPARFSGSGSGTSYSLIISSMEAEDAAIYYCQQWNYPLITFGAGTKLELK

1: 10.38; 2: 10.31; 3: 10.30; 4: 10.24
